The origin of these recorded values is the supplement of paper PMC7724964.

# ASSAY TARGET: T1, PPARG 233-505 Hormone_recep (domain begin residue: 233, domain end residue: 505), P37231
# T1 chain: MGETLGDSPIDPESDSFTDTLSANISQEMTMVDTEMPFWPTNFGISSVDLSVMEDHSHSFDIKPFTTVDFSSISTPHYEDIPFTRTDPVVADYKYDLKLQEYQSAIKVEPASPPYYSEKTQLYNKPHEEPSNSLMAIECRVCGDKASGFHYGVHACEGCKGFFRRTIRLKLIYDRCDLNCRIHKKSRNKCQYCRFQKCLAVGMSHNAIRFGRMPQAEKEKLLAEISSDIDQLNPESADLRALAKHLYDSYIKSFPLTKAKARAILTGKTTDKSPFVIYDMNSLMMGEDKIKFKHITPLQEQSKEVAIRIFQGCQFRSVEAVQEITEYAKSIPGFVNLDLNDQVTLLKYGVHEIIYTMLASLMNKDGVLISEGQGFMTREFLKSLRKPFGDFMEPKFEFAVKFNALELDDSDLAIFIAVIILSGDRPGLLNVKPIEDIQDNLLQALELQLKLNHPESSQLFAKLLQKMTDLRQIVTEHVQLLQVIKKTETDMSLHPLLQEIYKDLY
# TEST DETAILS: phage ELISA signal ratio (GST-PRM binding over GST background); higher = stronger binding of peptide-phage to the PRM
Exercise: for every item that follows, state its recorded phage ELISA signal ratio.

Fill in the blank: the reported phage ELISA signal ratio of LHPMLTDMLAPNHMEV is ____.
18.6

Please give the result for QDLESWWWSEHLSNIM too.
14.3

Please give the result for MNHAQIQSPLLWSLLW too.
11.6

Please give the result for PSEDVSWWWQQHLMDI too.
17.6
